- ASSAY TARGET: SMARCA2 (Homo sapiens, UniProt P51531)
- Sequence (P51531 whole entry): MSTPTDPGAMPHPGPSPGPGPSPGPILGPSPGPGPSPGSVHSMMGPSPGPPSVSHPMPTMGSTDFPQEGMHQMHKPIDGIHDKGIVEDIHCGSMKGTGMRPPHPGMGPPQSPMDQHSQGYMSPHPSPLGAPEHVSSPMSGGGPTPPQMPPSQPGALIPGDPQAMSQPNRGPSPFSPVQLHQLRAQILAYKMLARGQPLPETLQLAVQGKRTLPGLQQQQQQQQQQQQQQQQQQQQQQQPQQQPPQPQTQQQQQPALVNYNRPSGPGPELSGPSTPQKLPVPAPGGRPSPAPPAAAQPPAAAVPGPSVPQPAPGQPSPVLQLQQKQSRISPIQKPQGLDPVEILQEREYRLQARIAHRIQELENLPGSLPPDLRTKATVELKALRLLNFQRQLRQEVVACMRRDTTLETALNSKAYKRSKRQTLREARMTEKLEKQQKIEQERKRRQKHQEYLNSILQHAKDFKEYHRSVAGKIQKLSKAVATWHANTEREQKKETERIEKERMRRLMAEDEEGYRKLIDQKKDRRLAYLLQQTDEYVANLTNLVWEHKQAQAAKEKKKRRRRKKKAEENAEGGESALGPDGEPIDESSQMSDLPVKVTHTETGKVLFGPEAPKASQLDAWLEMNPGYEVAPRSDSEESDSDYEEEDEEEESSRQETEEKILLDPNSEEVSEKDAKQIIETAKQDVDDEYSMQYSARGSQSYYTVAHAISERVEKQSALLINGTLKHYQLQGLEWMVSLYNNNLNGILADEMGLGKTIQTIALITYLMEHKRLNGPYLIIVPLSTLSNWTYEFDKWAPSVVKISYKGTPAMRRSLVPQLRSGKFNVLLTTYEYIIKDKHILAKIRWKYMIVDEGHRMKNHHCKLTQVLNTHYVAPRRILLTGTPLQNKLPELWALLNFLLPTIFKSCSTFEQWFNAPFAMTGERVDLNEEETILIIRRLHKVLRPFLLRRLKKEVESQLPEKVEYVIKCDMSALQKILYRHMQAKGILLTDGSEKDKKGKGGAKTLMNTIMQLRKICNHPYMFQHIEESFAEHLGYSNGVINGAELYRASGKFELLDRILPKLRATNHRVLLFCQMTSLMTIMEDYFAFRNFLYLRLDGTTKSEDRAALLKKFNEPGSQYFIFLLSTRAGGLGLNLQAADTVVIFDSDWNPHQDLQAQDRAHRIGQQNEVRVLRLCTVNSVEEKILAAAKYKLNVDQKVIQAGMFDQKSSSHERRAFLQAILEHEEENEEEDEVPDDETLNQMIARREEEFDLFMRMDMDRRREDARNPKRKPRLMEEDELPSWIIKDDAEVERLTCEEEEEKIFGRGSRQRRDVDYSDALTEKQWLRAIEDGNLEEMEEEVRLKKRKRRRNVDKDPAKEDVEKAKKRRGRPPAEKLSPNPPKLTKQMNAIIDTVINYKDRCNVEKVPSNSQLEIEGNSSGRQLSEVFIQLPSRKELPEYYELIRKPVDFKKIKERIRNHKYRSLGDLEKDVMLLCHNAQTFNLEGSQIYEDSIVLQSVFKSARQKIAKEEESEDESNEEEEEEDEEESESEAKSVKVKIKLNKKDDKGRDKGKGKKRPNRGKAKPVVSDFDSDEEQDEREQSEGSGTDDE
- ASSAY TEXT: HiBiT assay for protein degradation, Hela SMARCA2-HiBiT cells (A series)
- Format: cell-based
- Parameters: Hela cells were genetically modified via CRISPR/Cas9 to fuse HiBiT to the carboxy terminus of SMARCA2; host or cells: HeLa (CRISPR/Cas9 HiBiT knock-in)
- TEST CONDITIONS: HeLa, read-out: SMARC A2 Hela HiBit Dmax (%)
- Description: Hela cells were genetically modified via CRISPR/Cas9 to fuse HiBiT to the carboxy terminus of SMARCA2 (Promega CS302365) or SMARCA4 (Promega CS3023225). Cells were cultured in DMEM containing 10% FBS and 1% (Vol:Vol) penicillin-streptomycin. […] At the end of experiment, levels of SMARCA2 or SMARCA4 expression were assessed with Nano-Glo® HiBiT Lytic Detection Assay (Promega N3050). IC50 was obtained using the GraphPad Prism data analysis software.
RESULT TYPE: Dmax

MOLECULE	ASSAY TARGET	REPORTED MEASUREMENT
Cc1ncsc1-c1ccc([C@H](CCCCCN2CCC(c3ccc4c(c3)C3(CCCCC3)c3nc(=O)c5c(Cl)cccc5n3-4)CC2)NC(=O)[C@@H]2C[C@@H](O)CN2C(=O)[C@@H](NC(=O)C2(F)CC2)C(C)(C)C)cc1 [Compound A3]	SMARCA2 (Homo sapiens, UniProt P51531)	> 90%
Cc1ncsc1-c1ccc([C@H](C)NC(=O)[C@@H]2C[C@@H](O)CN2C(=O)[C@@H](n2cc([C@H]3CC[C@H](CN4CCC(c5ccc6c(n5)-n5c(nc(=O)c7c(Cl)cccc75)C65CCCCC5)CC4)CC3)nn2)C(C)(C)C)cc1 [Compound A78]	SMARCA2 (Homo sapiens, UniProt P51531)	70 to 90%
Cc1ncsc1-c1ccc([C@H](C)NC(=O)[C@@H]2C[C@@H](O)CN2C(=O)[C@@H](NC(=O)CN2CCC(c3ccc4c(c3)-n3c(nc(=O)c5c(Br)cccc53)C43CCCCC3)CC2)C(C)(C)C)cc1 [Compound A40]	SMARCA2 (Homo sapiens, UniProt P51531)	> 90%
Cc1ncsc1-c1ccc([C@H](C)NC(=O)[C@@H]2C[C@@H](O)CN2C(=O)[C@@H](NC(=O)CCCCN2CCC(c3ccc4c(c3)C3(CCCCC3)c3nc(=O)c5c(Cl)cccc5n3-4)CC2)C(C)(C)C)cc1 [Compound A8]	SMARCA2 (Homo sapiens, UniProt P51531)	70 to 90%
Cc1ncsc1-c1ccc([C@H](C)NC(=O)[C@@H]2C[C@@H](O)CN2C(=O)[C@@H](NC(=O)C23CCC(CN4CCC(c5ccc6c(c5)C5(CCCCC5)c5nc(=O)c7c(Br)cccc7n5-6)CC4)(CC2)CC3)C(C)(C)C)cc1 [Compound A27]	SMARCA2 (Homo sapiens, UniProt P51531)	70 to 90%
Cc1ncsc1-c1ccc([C@H](C)NC(=O)[C@@H]2C[C@@H](O)CN2C(=O)[C@@H](NC(=O)CCCCCN2CCC(c3ccc4c(c3)C3(CCCCC3)c3nc(=O)c5c(Cl)cccc5n3-4)CC2)C(C)(C)C)cc1 [Compound A9]	SMARCA2 (Homo sapiens, UniProt P51531)	> 90%
Cc1ncsc1-c1ccc([C@H](C)NC(=O)[C@@H]2C[C@@H](O)CN2C(=O)[C@@H](NC(=O)C2CC(CN3CCC(c4ccc5c(c4)C4(CCCCC4)c4nc(=O)c6c(Br)cccc6n4-5)CC3)C2)C(C)(C)C)cc1 (stereo partly drawn) [Compound A20]	SMARCA2 (Homo sapiens, UniProt P51531)	> 90%
Cc1ncsc1-c1ccc([C@H](C)NC(=O)[C@@H]2C[C@@H](O)CN2C(=O)[C@@H](NC(=O)C23CCC(CN4CCC(c5ccc6c(c5)-n5c(nc(=O)c7c(Br)cccc75)C65CCCCC5)CC4)(CC2)C3)C(C)(C)C)cc1 [Compound A23]	SMARCA2 (Homo sapiens, UniProt P51531)	> 90%
Cc1ncsc1-c1ccc([C@H](C)NC(=O)[C@@H]2C[C@@H](O)CN2C(=O)[C@@H](NC(=O)C23CCC(CN4CCC(c5ccc6c(c5)-n5c(nc(=O)c7c(Br)cccc75)C65CCCCC5)CC4)(CC2)CC3)C(C)(C)C)cc1 [Compound A29]	SMARCA2 (Homo sapiens, UniProt P51531)	70 to 90%
